Cited source for all entries: patent US20250281424A1

Biological target: human PF4 (Homo sapiens, UniProt P02776)
Construct: PF4 is a 70 amino acid, lysine-rich 7.8 kDa platelet-specific protein; made in house; host or cells: Escherichia coli BL21DE3 pLysS (pT7-7) and/or Drosophila S2 cells
Sequence (P02776 32-101): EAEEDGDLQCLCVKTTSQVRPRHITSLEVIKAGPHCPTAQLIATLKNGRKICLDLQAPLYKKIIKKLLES
Experiment: Inhibition of PF4 tetramer formation (BS3 cross-linking, SDS-PAGE)
Type: biochemical
Conditions: 10 μM inhibitor (column A); read-out: % inhibition of PF4 tetramer formation at single concentration of inhibitor
Quantity name: inhibition at 10 µM (%)
Answer with a number only, understood to be in %.

## Task Consider the compound shown here: CC(C)(C)OC(=O)N1CCC[C@@H]1C(=O)C1C(=O)c2ccc(C(=O)c3ccc4c(c3)C(=O)C(C(=O)[C@H]3CCCN3C(=O)OC(C)(C)C)C4=O)cc2C1=O (stereo partly drawn) What is its recorded inhibition at 10 µM?
## Result 93

## Task Report inhibition at 10 µM for CC(C)(C)OC(=O)NCCC(=O)C1C(=O)c2ccc(C(=O)c3ccc4c(c3)C(=O)C(C(=O)CCNC(=O)OC(C)(C)C)C4=O)cc2C1=O (stereo not drawn) please.
## Result 93

## Task // lookup inhibition at 10 µM for C[C@@H]1CC[C@@H](C(=O)C2C(=O)c3ccc(C(=O)c4ccc5c(c4)C(=O)C(C(=O)[C@@H]4CC[C@@H](C)N4C(=O)OC(C)(C)C)C5=O)cc3C2=O)N1C(=O)OC(C)(C)C (stereo partly drawn) [Example 120B]
## Result 86

----------
Quick reference: half-life at 0.5 μM of the listed items.
Assay: Mouse microsome stability
Type: in vitro ADME
Details: Mouse microsomes, compound conc = 0.5 μM, n = 1; read-out: Mouse microsome stability Half life t1/2
Kindly answer with a numeric value in min, unit omitted.

Examples with their reported half-life at 0.5 μM follow.
Molecule	Uom	half-life at 0.5 μM
CC(=O)C1C(=O)c2ccc(C(c3ccc4c(c3)C(=O)C(C(C)=O)C4=O)(C(F)(F)F)C(F)(F)F)cc2C1=O (stereo not shown)	min	105
COc1ccccc1NC(=O)C1C(=O)c2ccc(C(=O)c3ccc4c(c3)C(=O)C(C(=O)Nc3ccccc3OC)C4=O)cc2C1=O (stereo not shown)	min	52.2

Now, please, on to the next molecule.
## Task Which half-life at 0.5 μM is reported for this molecule? O=C(c1ccc2c(c1)C(=O)C(C(=O)NCCc1ccc(F)cc1)C2=O)c1ccc2c(c1)C(=O)C(C(=O)NCCc1ccc(F)cc1)C2=O (stereo not shown)
## Result 47.9

----------
Target: human PF4 (Homo sapiens, UniProt P02776)
Construct: PF4 is a 70 amino acid, lysine-rich 7.8 kDa platelet-specific protein; made in house; host or cells: Escherichia coli BL21DE3 pLysS (pT7-7) and/or Drosophila S2 cells
Assay: Inhibition of PF4 tetramer formation (BS3 cross-linking, SDS-PAGE)
Assay type: biochemical
Details: 3 μM inhibitor (column A); read-out: % inhibition of PF4 tetramer formation at single concentration of inhibitor
Measured inhibition at 3 µM values are reported for all entries that follow.
Answer in %, number only, no unit symbol.

Molecule	Quantity name	Assay result
O=C(c1ccc2c(c1)C(=O)C(C(=O)NCC1CCOC1)C2=O)c1ccc2c(c1)C(=O)C(C(=O)NCC1CCOC1)C2=O (stereo not drawn)	inhibition at 3 µM	63
O=C(NC1CCOCC1)C1C(=O)c2ccc(S(=O)(=O)c3ccc4c(c3)C(=O)C(C(=O)NC3CCOCC3)C4=O)cc2C1=O (stereo not drawn)	inhibition at 3 µM	45
CC(C(=O)C1C(=O)c2ccc(C(=O)c3ccc4c(c3)C(=O)C(C(=O)C(C)c3ccc(F)cc3)C4=O)cc2C1=O)c1ccc(F)cc1 (stereo not drawn)	inhibition at 3 µM	31
O=C(NC1CCS(=O)(=O)C1)C1C(=O)c2ccc(S(=O)(=O)c3ccc4c(c3)C(=O)C(C(=O)NC3CCS(=O)(=O)C3)C4=O)cc2C1=O (stereo not drawn)	inhibition at 3 µM	59
O=C1c2ccc(Oc3ccc4c(c3)C(=O)C(C(=O)[C@H]3CCCN3)C4=O)cc2C(=O)C1C(=O)[C@@H]1CCNC1 (stereo partly drawn)	inhibition at 3 µM	55

## Task What measured inhibition at 3 µM goes with CSCC(=O)C1C(=O)c2ccc(Oc3ccc4c(c3)C(=O)C(C(=O)CSC)C4=O)cc2C1=O (stereo not drawn) ?
## Result 43

----------
Target: P450 2C19 (Homo sapiens)
Sequence (P33261 whole entry): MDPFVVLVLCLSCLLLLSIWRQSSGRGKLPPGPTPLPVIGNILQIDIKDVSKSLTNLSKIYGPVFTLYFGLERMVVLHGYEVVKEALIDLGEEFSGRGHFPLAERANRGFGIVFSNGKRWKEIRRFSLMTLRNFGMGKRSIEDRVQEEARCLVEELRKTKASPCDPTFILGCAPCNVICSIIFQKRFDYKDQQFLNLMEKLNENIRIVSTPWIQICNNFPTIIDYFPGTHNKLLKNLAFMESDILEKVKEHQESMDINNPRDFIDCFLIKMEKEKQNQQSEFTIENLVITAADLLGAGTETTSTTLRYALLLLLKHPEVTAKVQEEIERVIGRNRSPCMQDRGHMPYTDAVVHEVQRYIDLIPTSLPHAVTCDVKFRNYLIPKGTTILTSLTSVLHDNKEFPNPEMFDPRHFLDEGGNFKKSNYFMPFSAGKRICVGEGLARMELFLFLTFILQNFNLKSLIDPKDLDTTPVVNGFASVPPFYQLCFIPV
Assay: P450 inhibition 2C19
Assay type: in vitro ADME
Quantity name: IC50

## Task Using the record for CC(=O)C1C(=O)c2ccc(C(=O)c3ccc4c(c3)C(=O)C(C(C)=O)C4=O)cc2C1=O (stereo not shown) , report its IC50.
## Result > 100 µM

----------
Target: human PF4 (Homo sapiens, UniProt P02776)
Construct: PF4 is a 70 amino acid, lysine-rich 7.8 kDa platelet-specific protein; made in house; host or cells: Escherichia coli BL21DE3 pLysS (pT7-7) and/or Drosophila S2 cells
Assay: Inhibition of PF4 tetramer formation (BS3 cross-linking, SDS-PAGE)
Assay type: biochemical
Settings: 3 μM inhibitor (column A); read-out: % inhibition of PF4 tetramer formation at single concentration of inhibitor
Quantity name: inhibition at 3 µM (%)
Report only the number, with the unit % understood.

## Task Request the reported inhibition at 3 µM associated with CCOC(=O)CC(=O)C1C(=O)c2ccc(S(=O)(=O)c3ccc4c(c3)C(=O)C(C(=O)CC(=O)OCC)C4=O)cc2C1=O (stereo not drawn)
## Result 23

## Task Need inhibition at 3 µM, item CC[C@H](C)[C@H](NC(=O)C1C(=O)c2ccc(S(=O)(=O)c3ccc4c(c3)C(=O)C(C(=O)N[C@H](C(=O)OC)[C@@H](C)CC)C4=O)cc2C1=O)C(=O)OC (stereo partly drawn)
## Result 21

## Task Quick check: inhibition at 3 µM of O=C1c2ccc(Oc3ccc4c(c3)C(=O)C(C(=O)C3CCCCC3)C4=O)cc2C(=O)C1C(=O)C1CCCCC1 (stereo not drawn) ?
## Result 47

## Task Given CC(C)(C)OC(=O)N1CCOC(C(=O)C2C(=O)c3ccc(S(=O)(=O)c4ccc5c(c4)C(=O)C(C(=O)C4CN(C(=O)OC(C)(C)C)CCO4)C5=O)cc3C2=O)C1 (stereo not drawn) , state its recorded inhibition at 3 µM.
## Result 3

## Task inhibition at 3 µM for Cc1ccccc1C(=O)CCC(=O)C1C(=O)c2ccc(C(=O)c3ccc4c(c3)C(=O)C(C(=O)CCC(=O)c3ccccc3C)C4=O)cc2C1=O (stereo not drawn) ?
## Result 37

## Task Consider the molecule shown here: C[C@H](NC(=O)C1C(=O)c2ccc(C(=O)c3ccc4c(c3)C(=O)C(C(=O)N[C@@H](C)C(=O)O)C4=O)cc2C1=O)C(=O)O (stereo partly drawn) What is its recorded inhibition at 3 µM?
## Result 50

----------
Test: Human microsome stability
Type: in vitro ADME
Settings: Human microsomes, compound conc = 0.5 μM, n = 1; read-out: Human microsome stability Half life t1/2
Rule: half-life at 0.5 μM of 60 min or more gives yes (1); anything lower gives no (0).

Answered examples (2):
Compound	Classification
CC(=O)C1C(=O)c2ccc(C(=O)c3ccc4c(c3)C(=O)C(C(C)=O)C4=O)cc2C1=O (stereo not shown)	yes (1)
O=C(c1ccc2c(c1)C(=O)C(C(=O)NCCc1ccccc1)C2=O)c1ccc2c(c1)C(=O)C(C(=O)NCCc1ccccc1)C2=O (stereo not shown)	yes (1)

## Task Can O=C(O)CCNC(=O)C1C(=O)c2ccc(C(=O)c3ccc4c(c3)C(=O)C(C(=O)NCCC(=O)O)C4=O)cc2C1=O (stereo not shown) be said to have half-life at 0.5 μM at or above 60 min?
## Result no (0)

## Task Hi, just wondering whether O=C(NC1CC1)C1C(=O)c2ccc(S(=O)(=O)c3ccc4c(c3)C(=O)C(C(=O)NC3CC3)C4=O)cc2C1=O (stereo not shown) shows half-life at 0.5 μM of 60 min or higher.
## Result yes (1)

## Task Record `O=C(c1ccc2c(c1)C(=O)CC2=O)c1ccc2c(c1)C(=O)CC2=O` ; criterion: half-life at 0.5 μM no lower than 60 min. Met?
## Result no (0)

## Task Confirm if half-life at 0.5 μM reported for the compound CC(=O)C1C(=O)c2ccc(C(c3ccc4c(c3)C(=O)C(C(C)=O)C4=O)(C(F)(F)F)C(F)(F)F)cc2C1=O (stereo not shown) is 60 min or above.
## Result yes (1)

## Task Is reported half-life at 0.5 μM greater than or equal to 60 min here: COc1ccccc1NC(=O)C1C(=O)c2ccc(C(=O)c3ccc4c(c3)C(=O)C(C(=O)Nc3ccccc3OC)C4=O)cc2C1=O (stereo not shown)
## Result yes (1)

## Task Determine whether measured half-life at 0.5 μM meets or exceeds 60 min for CCCNC(=O)C1C(=O)c2ccc(C(=O)c3ccc4c(c3)C(=O)C(C(=O)NCCC)C4=O)cc2C1=O (stereo not shown)
## Result yes (1)

## Task Is the recorded value of half-life at 0.5 μM equal to or greater than 60 min for this compound? CCOC(=O)C1C(=O)c2ccc(C(=O)c3ccc4c(c3)C(=O)C(C(=O)OCC)C4=O)cc2C1=O (stereo not shown)
## Result yes (1)
